- Measured Target: T1, human CD39 (full length, on cells) (human, UniProt P49961 1-510)
- T1 construct: Recombinant on CHOK1-hCD39 cells or natural on SK-MEL-28, SK-MEL-5 and MOLP-8 cells; the cell line is named under assay; also called hCD39; ENTPD1
- T1 sequence: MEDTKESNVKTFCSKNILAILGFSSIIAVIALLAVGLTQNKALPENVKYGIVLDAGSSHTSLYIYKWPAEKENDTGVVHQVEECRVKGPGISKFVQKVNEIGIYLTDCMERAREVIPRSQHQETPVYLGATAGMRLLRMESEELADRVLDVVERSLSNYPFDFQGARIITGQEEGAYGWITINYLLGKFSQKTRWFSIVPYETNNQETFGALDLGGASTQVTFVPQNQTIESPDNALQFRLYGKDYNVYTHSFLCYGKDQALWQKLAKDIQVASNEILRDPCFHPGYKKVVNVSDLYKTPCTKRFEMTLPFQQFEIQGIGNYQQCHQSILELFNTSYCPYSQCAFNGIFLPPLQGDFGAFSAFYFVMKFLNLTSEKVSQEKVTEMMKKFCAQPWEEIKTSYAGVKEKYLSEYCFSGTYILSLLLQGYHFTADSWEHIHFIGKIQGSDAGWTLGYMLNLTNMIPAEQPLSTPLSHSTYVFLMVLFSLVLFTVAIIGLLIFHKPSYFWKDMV
- Assay Procedure: FACS, MOLP-8 cells
pEC50: −log10 of the molar value.
Reported pEC50 is given for each of the following binders.

# Binder, pEC50
records = [
    ("hu23.H7L6 (antibody, V domains shown, humanized c23) VH: EVQLVQSGAEVKKPGASVKLSCKASGYNLKDTFLHWVKQAPGQGLEWIGRIDPANGNIKYDPKFQGKATLTADTSANTAYLELISLRSEDTAVYYCANSPYYYGSGYRIFDVWGQGTTVTVSS VL: QIVLTQSPATLSASPGERATLSCSAFSSVNYMHWYQQKPGQAPKLLIYTTSNLASGVPTRFSGSGSGTSYTLTISSMEPEDFAVYYCQQRSTYPFTFGQGTKLEIK", 9.57),
    ("hu23.H6L6 (antibody, V domains shown, humanized c23) VH: EVQLVQSGAEVKKPGASVKLSCKASGYNLKDTFLHWVRQAPGQGLEWIGRIDPANGNIKYDPKFQGRATITADTSANTAYMELISLRSEDTAVYYCANSPYYYGSGYRIFDVWGQGTTVTVSS VL: QIVLTQSPATLSASPGERATLSCSAFSSVNYMHWYQQKPGQAPKLLIYTTSNLASGVPTRFSGSGSGTSYTLTISSMEPEDFAVYYCQQRSTYPFTFGQGTKLEIK", 9.63),
    ("hu23.H4L2 (antibody, V domains shown, humanized c23) VH: QVQLVQSGAEVKKPGASVKLSCKASGYNLKDTFLHWVKQAPGQGLEWIGRIDPANGNIKYDPKFQGRATLTADTSASTAYLELSSLRSEDTAVYYCANSPYYYGSGYRIFDVWGQGTTVTVSS VL: EIVLTQSPATLSLSPGERATLSCSAFSSVNYMHWYQQKPGQAPRLLIYTTSNLASGIPARFSGSGSGTDYTLTISSLEPEDFAVYYCQQRSTYPFTFGQGTKLEIK", 8.94),
    ("hu23.H5L1 (antibody, V domains shown, humanized c23) VH: QVQLVQSGAEVKKPGASVKVSCKASGYNLKDTFLHWVRQAPGQGLEWMGRIDPANGNIKYDPKFQGRVTITADTSANTAYMELISLRSEDTAVYYCANSPYYYGSGYRIFDVWGQGTTVTVSS VL: EIVLTQSPATLSLSPGERATLSCSAFSSVNYMHWYQQKPGQAPRLLIYTTSNLASGIPARFSGSGSGTDFTLTISSLEPEDFAVYYCQQRSTYPFTFGQGTKLEIK", 9.58),
    ("hu23.H6L1 (antibody, V domains shown, humanized c23) VH: EVQLVQSGAEVKKPGASVKLSCKASGYNLKDTFLHWVRQAPGQGLEWIGRIDPANGNIKYDPKFQGRATITADTSANTAYMELISLRSEDTAVYYCANSPYYYGSGYRIFDVWGQGTTVTVSS VL: EIVLTQSPATLSLSPGERATLSCSAFSSVNYMHWYQQKPGQAPRLLIYTTSNLASGIPARFSGSGSGTDFTLTISSLEPEDFAVYYCQQRSTYPFTFGQGTKLEIK", 9.61),
    ("hu23.H3L2 (antibody, V domains shown, humanized c23) VH: QVQLVQSGAEVKKPGASVKLSCKASGYNLKDTFLHWVRQAPGQGLEWIGRIDPANGNIKYDPKFQGRATITADTSASTAYMELSSLRSEDTAVYYCANSPYYYGSGYRIFDVWGQGTTVTVSS VL: EIVLTQSPATLSLSPGERATLSCSAFSSVNYMHWYQQKPGQAPRLLIYTTSNLASGIPARFSGSGSGTDYTLTISSLEPEDFAVYYCQQRSTYPFTFGQGTKLEIK", 8.87),
    ("hu23.H1L2 (antibody, V domains shown, humanized c23) VH: QVQLVQSGAEVKKPGASVKVSCKASGYNLKDTFLHWVRQAPGQRLEWMGRIDPANGNIKYDPKFQGRVTITRDTSASTAYMELSSLRSEDTAVYYCARSPYYYGSGYRIFDVWGQGTTVTVSS VL: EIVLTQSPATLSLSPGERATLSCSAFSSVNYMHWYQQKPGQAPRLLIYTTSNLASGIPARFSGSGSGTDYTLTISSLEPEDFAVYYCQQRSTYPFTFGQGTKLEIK", 8.94),
    ("hu23.H6L5 (antibody, V domains shown, humanized c23) VH: EVQLVQSGAEVKKPGASVKLSCKASGYNLKDTFLHWVRQAPGQGLEWIGRIDPANGNIKYDPKFQGRATITADTSANTAYMELISLRSEDTAVYYCANSPYYYGSGYRIFDVWGQGTTVTVSS VL: QIVLTQSPATLSLSPGERATLSCSAFSSVNYMHWYQQKPGQAPRLLIYTTSNLASGIPTRFSGSGSGTSYTLTISSLEPEDFAVYYCQQRSTYPFTFGQGTKLEIK", 9.23),
    ("hu23.H5L6 (antibody, V domains shown, humanized c23) VH: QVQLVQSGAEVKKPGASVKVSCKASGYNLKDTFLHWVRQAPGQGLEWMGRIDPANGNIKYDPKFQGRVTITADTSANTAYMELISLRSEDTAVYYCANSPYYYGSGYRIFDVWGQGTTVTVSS VL: QIVLTQSPATLSASPGERATLSCSAFSSVNYMHWYQQKPGQAPKLLIYTTSNLASGVPTRFSGSGSGTSYTLTISSMEPEDFAVYYCQQRSTYPFTFGQGTKLEIK", 9.69),
]
